Measured activity at 100 µM accompanies every entry in the list below.
- System: Pseudomonas aeruginosa
- method.notes: Static biofilm formation assay (crystal violet)
- Format: cell-based
- protocol.conditions: Pseudomonas aeruginosa, 24 h; Table 3; static; 100 (μM); read-out: Relative biological activity (%) Biofilm formation 100
Please give the number followed by its unit.

Worked examples follow.
compound	target.under.test	observation.type	result
CCCC(O)CC(=O)/C=C/c1ccc(O)c(O)c1 (stereo not drawn) [Compound 11k]	Pseudomonas aeruginosa	activity at 100 µM	72%
CCCC(O)CC(=O)/C=C/c1ccc(F)c(F)c1 (stereo not drawn) [Compound 11o]	Pseudomonas aeruginosa	activity at 100 µM	53%

Moving on to another compound below.
Field: activity at 100 µM (Pseudomonas aeruginosa). Entry: CCC[C@H](O)C#Cc1ccc(F)c(F)c1 [Compound 33c, (S)-1-(3,4-Difluorophenyl)hex-1-yn-3-ol] 64%
